assay: chemical genetic growth profiling, strain panel (AID 1159580);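 also: tested at 20 µM; growth read once vehicle control cultures reached saturation at 30 °C; 1 = growth at the plate median or of vehicle wells; lower values mean less growth of the strain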; details: S. cerevisiae deletion strains, growth OD, locus YLL001W, strain dnm1, hits give low values
The campaign covered roughly 5,500 compounds. About 2,000 (36%) were called active. About 18% were inconclusive and are not listed. The list shows a part of the results.
Please provide measured normalized growth for the entries that follow.
// response body must contain only the number

Query block: Tell us which normalized growth value is on record for `CCCCCN=C(N)N/N=C\c1c[nH]c2ccc(OC)cc12`
Result block: 1.01

Query block: Tell us which normalized growth value is on record for C[N+]1(C)C2CC[C@H]1CC(OC(=O)C(O)c1ccccc1)C2 (some centres not stated)
Result block: 0.98

Query block: Tell us which normalized growth value is on record for `Cn1cnc([N+](=O)[O-])c1Sc1ncnc2nc[nH]c12`
Result block: 1.02

Query block: Tell us which normalized growth value is on record for `COc1c(O)cc(O)cc1O`
Result block: 0.999

Query block: Tell us which normalized growth value is on record for CC1=C2CCC3C(CC[C@]4(C)C(=O)CCC34)[C@@]2(C)CCC1=O (some centres not stated)
Result block: 0.937

Query block: Tell us which normalized growth value is on record for CN1Cc2c(N)cccc2C(c2ccccc2)C1 (configuration not stated)
Result block: 1.01

Query block: Tell us which normalized growth value is on record for `COc1cc(O)c(C(C)=O)c(OC)c1`
Result block: 0.992

Query block: Tell us which normalized growth value is on record for CSCCC(NC=O)C(=O)NC(CC(C)C)C(=O)NC(Cc1ccccc1)C(=O)O (configuration not stated)
Result block: 1

Query block: Tell us which normalized growth value is on record for COc1cc(OC)c2c(c1Cl)OC1(C2=O)C(O)=CC(=O)CC1C (configuration not stated)
Result block: 1

Query block: Tell us which normalized growth value is on record for `COc1ccc2c(=O)c(CC(=O)O)coc2c1`
Result block: 1

Query block: Tell us which normalized growth value is on record for `FC(F)(F)COCC(F)(F)F`
Result block: 0.988

Query block: Tell us which normalized growth value is on record for `COc1cc(OC)c(C(C)=O)c(O)c1C`
Result block: 0.939

----------
assay: chemical genetic growth profiling, strain panel (AID 1159580);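 also: tested at 20 µM; growth read once vehicle control cultures reached saturation at 30 °C; 1 = growth at the plate median or of vehicle wells; lower values mean less growth of the strain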; settings: S. cerevisiae deletion strains, growth OD, locus YGR052W, strain FMP48, hits give low values
Among all 5,500 compounds or so, about 2,000 (36%) were called active. Another 18% or so got no clear call; they are omitted. This is one part of the list.
MEASURE NAME: normalized growth

Query block: Tell us which normalized growth value is on record for `O=C(c1ccc(Cl)cc1)N1CCN(c2ccc(C(F)(F)F)cn2)CC1`
Result block: 0.978 (inactive)

Query block: Tell us which normalized growth value is on record for `N/C(=N/OC(=O)c1ccccc1Cl)c1ccc2nonc2c1`
Result block: 1.05 (inactive)

Query block: Tell us which normalized growth value is on record for `Nc1ccc(N2CCN(c3ccc(C(F)(F)F)cn3)CC2)nc1`
Result block: 0.968 (inactive)

Query block: Tell us which normalized growth value is on record for CCOC(=O)C(NC(C)=O)(Nc1ccc(F)c(Cl)c1)C(F)(F)F (configuration not stated)
Result block: 1.14 (inactive)

Query block: Tell us which normalized growth value is on record for `Cc1nn(Cc2cccc(C(=O)O/N=C(/N)c3ccc(Cl)cc3)c2)c(C)c1Br`
Result block: 1.03 (inactive)

Query block: Tell us which normalized growth value is on record for `Cc1nc(C(F)(F)F)ccc1-c1nnc(SC(=O)c2ccc(Cl)cc2)o1`
Result block: 0.638 (inactive)

Query block: Tell us which normalized growth value is on record for `Cc1nc(C(F)(F)F)ccc1C(=O)Sc1nnc(-c2ccc(C(F)(F)F)nc2C)o1`
Result block: 0.929 (inactive)
